# credit: PubChem BioAssay (NCATS)

test: Cellular Toxicity (caspase-3) H-4-II-E (AID 663); details: H-4-II-E rat hepatoma, scaled: DMSO 0%, 100 µM tamoxifen 100%; at 92.2 µM (top of the series);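 further: cells exposed to compound for 16 hr before readout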
Inconclusive results are not listed.
Observable: caspase-3 activation (%)
Lab book: enter the figure in %, no units written.

Ask: If you can, please state the reported caspase-3 activation value of CCOC(=O)OCC .
Reply: -0.0213

Ask: If you can, please state the reported caspase-3 activation value of Cc1ccc([N+](=O)[O-])c(N)c1 .
Reply: -0.384

Ask: If you can, please state the reported caspase-3 activation value of CCC(=O)/C=C/C1C(C)=CCCC1(C)C (stereo not drawn) .
Reply: 2.63

Ask: If you can, please state the reported caspase-3 activation value of CCOCCOCC .
Reply: 1.77

Next:
Ask: If you can, please state the reported caspase-3 activation value of Cc1ccc2cccnc2c1 .
Reply: -0.588

Ask: If you can, please state the reported caspase-3 activation value of Cc1ccc(C)c([N+](=O)[O-])c1 .
Reply: -0.213

Ask: If you can, please state the reported caspase-3 activation value of Cc1ccc2ccccc2c1[N+](=O)[O-] .
Reply: -1.44

Ask: If you can, please state the reported caspase-3 activation value of N#CC1(O)CCCCC1 .
Reply: -0.143

Ask: If you can, please state the reported caspase-3 activation value of O=C1CCCCC1 .
Reply: 0.476

Ask: If you can, please state the reported caspase-3 activation value of O=C(O)c1ccc(Cl)c(Cl)c1 .
Reply: -0.517
